meta.source: PubChem BioAssay (NCI)

assay: NCI Yeast Anticancer Drug Screen. Data for the bub3 strain (AID 167); settings: S. cerevisiae bub3 mutant strain, at 50.0 µM
About 79,000 compounds went through this panel and 15% of them were active in at least one assay; those are over-represented in the sample as a whole. Activity calls are given as the source filed them. No stated cut-off is given here; in the data, active means growth inhibition above about 70%; inactive means the rest.
Classes used: TRUE = active, FALSE = inactive

INSERT INTO assay_data (compound, qualitative_label) VALUES
  ('Cc1ccc(C(C(=O)O)C(Cl)(Cl)Cl)cc1 (centres undefined)', 'FALSE'),
  ('CCCCCC(=O)OCC(COC(=O)CCCCC)OC(=O)CCCCC', 'FALSE'),
  ('Cn1c(=O)c2ncn(CC3CCCCC3)c2n(C)c1=O', 'FALSE'),
  ('S=C(NCc1ccc(Cl)cc1Cl)Nc1ccccc1', 'FALSE'),
  ('C=CCOC1OC(CS(=O)(=O)O)C(OC(C)=O)C(OC(C)=O)C1OC(C)=O (centres undefined)', 'FALSE'),
  ('COc1ccc(-c2oc3cc(OC)ccc3c(=O)c2O)cc1', 'FALSE'),
  ('C[C@@H]1Nc2ccccc2[C@H]1C', 'FALSE'),
  ('Cc1cccc(SC(=O)Nc2cc([N+](=O)[O-])ccc2Cl)c1', 'FALSE'),
  ('CC(C)C(C(=O)O)N(C)C(=O)c1cnc2ccccc2n1 (centres undefined)', 'FALSE'),
  ('O=c1c2ccccc2[nH]c2ccc(Br)cc12', 'FALSE'),
  ('CCCCSCCC(=O)O', 'FALSE'),
  ('CC(NC(=O)OC(C)(C)C)C(=O)NC(Cc1ccccc1)C(=O)NCC(=O)ON=C1CCCC1 (centres undefined)', 'FALSE'),
  ('CC(=O)CC(=O)C1CCC(C(=O)CC(C)=O)CC1 (centres undefined)', 'FALSE'),
  ('CCCCN=NNc1cn(C2OC(CO)C(O)C2O)c(=O)[nH]c1=O (centres undefined)', 'FALSE'),
  ('COC(=O)c1ccccc1NC(=O)Nc1ccc(F)c([N+](=O)[O-])c1', 'FALSE'),
  ('CSCCCN(CCCSC)CCCSC', 'FALSE'),
  ('CCOC1([N+](=O)[O-])c2ccccc2-c2nc3ccccc3cc21 (centres undefined)', 'TRUE'),
  ('O=C1c2cc(O)c(O)cc2O[C@H](c2ccc(O)c(O)c2)[C@H]1O', 'FALSE'),
  ('CC(=O)Nc1ccc(Cc2ccc3[nH]c(=O)cc(C)c3c2)cc1', 'FALSE'),
  ('COc1ccccc1NC(=O)CC(=O)n1nc(C)c(N=Nc2ccccc2F)c1C', 'FALSE'),
  ('Cc1nc2[nH]ncn2c(=O)c1CCCl', 'FALSE'),
  ('Cc1ccc(-c2n[nH]c(=O)n2N2C(=O)C=CC2=O)cc1', 'FALSE'),
  ('CN(C)CC1OCCc2ccccc21 (centres undefined)', 'FALSE'),
  ('C=CCCCN(c1ccc(C(=O)OCC)cc1)S(=O)(=O)c1ccc(C)cc1', 'FALSE'),
  ('C1CCC2(CCC34CCCCC3CCCC4)CCCCC2C1 (centres undefined)', 'TRUE'),
  ('CCOC(=O)[C@H]1CS[C@]2(c3ccco3)CC(=O)N12', 'FALSE'),
  ('CCC(C(=O)c1cccs1)C(O)(C(F)(F)F)C(F)(F)F (centres undefined)', 'FALSE'),
  ('C/C(=N\NC(=S)NC(C)C)c1nc2ncccc2[nH]1', 'FALSE'),
  ('ClCCCCCCCCCCl', 'FALSE'),
  ('COc1cc(OC)c2nc(C)c3c(c2c1)SCC3', 'FALSE'),
  ('COC1/C=C\OC2(C)Oc3c(C)c(O)c4c(O)c(c5sc(N)nc5c4c3C2=O)NC(=O)/C(C)=C\C=C\C(C)C(O)C(C)C(O)C(C)C(OC(C)=O)C1C (centres undefined)', 'FALSE'),
  ('CN(C)CC(C)(C)C(=O)c1ccc(F)cc1', 'FALSE'),
  ('O=C1CCCC/C1=C\c1ccc([N+](=O)[O-])cc1', 'FALSE'),
  ('O=C1C(NCCc2ccc(O)c(O)c2)=CC(=O)c2ncccc21', 'FALSE'),
  ('CCCCSc1nc2ccccc2c(=O)[nH]1', 'FALSE'),
  ('Cc1ccc(S(=O)(=O)C2(NC(=O)C3CC3)CC2)cc1', 'FALSE'),
  ('CCCCN(CCCC)CC(O)c1c2cccc(Cl)c2cc2c(Cl)cccc12 (centres undefined)', 'TRUE'),
  ('CCOC(=O)/C=C/c1ccc([N+](=O)[O-])cc1', 'FALSE'),
  ('N#CNC1=C(C#N)C(c2ccccc2)CC(=O)N1 (centres undefined)', 'FALSE'),
  ('NNC(=O)C(=O)N/N=C(\CCC(=O)Nc1ccc(Cl)cc1)Cc1nc2ccccc2s1', 'FALSE'),
  ('CCCn1c(=O)n(C)c(=O)c2c1ncn2C', 'FALSE'),
  ('Cc1c(C)c(C(C)O)c(C)c(C(C)O)c1C (centres undefined)', 'FALSE'),
  ('CCc1c(O)nc(Nc2nc3ccccc3[nH]2)[nH]c1=O', 'FALSE'),
  ('CN(C)C1C(=O)c2ccccc2C1=O', 'FALSE'),
  ('CCOc1cc(N)nc(N)n1', 'FALSE'),
  ('COc1ccc(C(=O)c2ccccc2)c(O)c1OC', 'FALSE'),
  ('CCCCCN(CCOC(=O)c1ccc([N+](=O)[O-])cc1)CCOC(=O)c1ccc([N+](=O)[O-])cc1', 'FALSE'),
  ('c1ccc(Nc2cc(Nc3ccccc3)ncn2)cc1', 'FALSE'),
  ('COc1cccc(N2C(=O)C3c4[nH]c5ccccc5c4C4CCCC4C3C2=O)c1 (centres undefined)', 'FALSE');

---

assay: NCI Yeast Anticancer Drug Screen. Data for the mec2-1 strain (AID 157); conditions: S. cerevisiae mec2-1 strain, at 50.0 µM, stronger effect = higher value
This is part of a sample that, as a whole, favours compounds with a hit. Of some 79,000 tested, about 15% had one in any assay. Calls of active or inactive are those of the source. Rule as the data show it: active = growth inhibition above about 70%; inactive = the rest.
Below, each of the compounds is paired with its reported growth inhibition value.
ENDPOINT_LABEL: growth inhibition

INSERT INTO measurements (compound, endpoint_label, observed_value) VALUES
  ('CCC(C)NC(=O)/C=C/C(=O)NC(C)CC (stereo unspecified)', 'growth inhibition', '-4.25% (inactive)'),
  ('CC(CCc1cccc2ccccc12)C(=O)O (stereo unspecified)', 'growth inhibition', '30.4% (inactive)'),
  ('CC(C)=C/C(C)=N/Nc1ccc([N+](=O)[O-])cc1[N+](=O)[O-]', 'growth inhibition', '5.6% (inactive)'),
  ('CS(=O)(=O)C(c1nc2n(c1O)C(=N)N=N2)c1nc2n(c1O)C(=N)N=N2 (stereo unspecified)', 'growth inhibition', '12.1% (inactive)'),
  ('O=C1c2ccccc2C(=O)N1CCSCCSCCN1C(=O)c2ccccc2C1=O', 'growth inhibition', '-13.7% (inactive)'),
  ('CCO/C=N\C1=C(C#N)SC2=N/C(=C\c3ccco3)C(=O)N21', 'growth inhibition', '-19.2% (inactive)');

---

Experiment: NCI Yeast Anticancer Drug Screen. Data for the cln2 rad14 strain (AID 165);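 further: 0% = growth equal to vehicle treated cultures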
Settings: S. cerevisiae cln2 rad14 strain, at 50.0 µM, stronger effect = higher value
Procedure: Growth inhibition of yeast strains with defined genetic alterations is measured as a screen for potential anti-cancer activity. Selected strains with alterations in DNA damage repair or cell cycle control were exposed to compounds and growth inhibition was measured relative to vehicle treated controls. The strain used in this assay is cln2 rad14
The panel holds about 79,000 compounds, 15% with a hit somewhere; the sample as a whole holds those more often.
Below, each of the molecules is paired with its reported growth inhibition value.
ENDPOINT_LABEL: growth inhibition (%)

INSERT INTO results (smiles_string, observed_value) VALUES
  ('O=NN(CCCl)C(=O)NCCc1cccc[n+]1[O-]', -5.75),
  ('NC(=O)c1nnc2ccc(F)cc2c1N', -2.55),
  ('N#CNc1c2ccccc2nc2ccccc12', 2.85),
  ('O=C(O)CN1C(=O)NC(C2CC2)(C2CC2)C1=O', -23.2),
  ('C(=C\c1csnn1)/c1cccnc1', 6.35),
  ('CCCCCCCCC1=C(CCCCCCC(=O)OC)[14CH2]1', 43.4),
  ('CCOC(=O)c1cc2c([N+](=O)[O-])cccc2[nH]1', -35.5);

---

assay: NCI Yeast Anticancer Drug Screen. Data for the mlh1 rad18 strain (AID 175); conditions: S. cerevisiae mlh1 rad18 strain growth inhibition; at 50.0 µM; stronger effect = higher value
The panel holds about 79,000 compounds, 15% with a hit somewhere; the sample as a whole holds those more often.
Below, each of the compounds is paired with its reported growth inhibition value.
ENDPOINT_LABEL: growth inhibition (%)

INSERT INTO results (compound, observed_value) VALUES
  ('NCCCCCCN', -65),
  ('O=C(COC(=O)c1cccc([N+](=O)[O-])c1)c1ccc(Br)cc1', 5.8),
  ('O=C(O)CCc1ccccc1C(=O)O', 9.5),
  ('C=C(/C=C/CCCC)NC(=O)OCc1ccccc1', 18.9),
  ('CC(=O)NCc1cccc[n+]1[O-]', -7.2),
  ('CC(=O)OCC1OC(n2nnc3c(=O)n(C)c(=O)[nH]c32)C(OC(C)=O)C(OC(C)=O)C1OC(C)=O (configuration not stated)', 29.4),
  ('CC1(C)CC[C@]2(C(=O)O)CC[C@]3(C)C(=CC[C@@H]4[C@@]5(C)CC[C@H](OC6OC(C(=O)O)C(O)C(O)C6O)C(C)(C)[C@@H]5CC[C@]43C)[C@@H]2C1 (some centres not stated)', 88.7),
  ('Cc1ccccc1-n1c(C)nc2cc(NCC(=O)c3ccccc3)ccc2c1=O', 4),
  ('O=C1C=CC(=NCl)C=C1', 10.6),
  ('CN(C)c1ccc(-c2ccncc2)cc1', 17.2),
  ('Cc1ccc(OC(=O)c2ccccc2)cc1CC(Cl)(Cl)Cl', -14.3),
  ('CCN(Cc1ccc(S(=O)(=O)O)cc1)c1cccc(S(=O)(=O)O)c1', 9.35);
